System: L-687,414-induced hyperlocomotion
Assay: L-687,414-induced hyperlocomotion
Assay type: in vivo, mouse
Conditions: Mus musculus; Dose ip 30 mg/kg, mice, 50 mg/kg s.c. L-687,414
property-name: inhibition in vivo at 30 mg/kg (%)
// units = %; emit number, no label

Recall and state the measured inhibition in vivo at 30 mg/kg for `Cc1ncc(-c2ccc3c(c2)N(c2cnc(C4CC4)cn2)C(=O)C3(C)C)cn1` . 76.9

Recall and state the measured inhibition in vivo at 30 mg/kg for `Cc1ncc(-c2ccc3c(c2)N(c2ccn(C)n2)C(=O)C3(C)C)cn1` . 93.4

Recall and state the measured inhibition in vivo at 30 mg/kg for `Cc1ncc(-c2ccc3c(c2)N(c2cnnc(Cl)c2)C(=O)C3(C)C)cn1` . 74.7

Recall and state the measured inhibition in vivo at 30 mg/kg for `Cc1ncc(-c2cc3c(cn2)C(C)(C)C(=O)N3c2ccn(C)n2)cn1` . 78.3

Recall and state the measured inhibition in vivo at 30 mg/kg for `Cc1cc(-c2cc3c(cn2)C(C)(C)C(=O)N3c2cnn(C)c2)ccn1` . 58.5

---

Target: mouse ENT-1 transporter (Mus musculus, UniProt Q9JIM1)
Test: Measure of adenosine transport activity (ENT1 adenosine uptake inhibition)
Conditions: stable cells expressing mouse ENT-1, [2,8-3H]-adenosine 6 nM, 20 min
Record form. Attribute: pIC50. Fill in for each entry.
Friendly reminder that pIC50 comes from taking -log10 of the concentration in mol/L.

Recall and state the measured pIC50 for Cc1ncc(-c2ccc3c(c2)N(c2cnc(Cl)cn2)C(=O)C3(C)C)cn1 [Example 117] . 7.46

Recall and state the measured pIC50 for COCc1ccc(N2C(=O)C(C)(C)c3ccc(-c4cnc(C)nc4)cc32)cn1 [Example 129] . 6.05

Recall and state the measured pIC50 for Cc1ncc(-c2ccc3c(c2)N(c2cccnc2)C(=O)C3(C)C)cn1 [Example 3] . 5.75

Recall and state the measured pIC50 for Cc1cnc(-c2ccc3c(c2)N(c2ccn(C)n2)C(=O)C3(C)C)cn1 [Example 138] . 5.24

Recall and state the measured pIC50 for Cc1ncc(-c2ccc3c(c2)N(c2ccc(C)s2)C(=O)C3(C)C)cn1 [Example 27] . 6.45

Recall and state the measured pIC50 for Cc1cnc(N2C(=O)C(C)(C)c3ccc(-c4cncc(F)c4)cc32)cn1 [Example 150] . 5.83

Recall and state the measured pIC50 for Cc1cc(-c2ccc3c(c2)N(c2ccnc(C)c2)C(=O)C3(C)C)ccn1 [Example 20] . 5.25

Recall and state the measured pIC50 for Cc1ncc(-c2ccc3c(c2)N(c2nnn(C)n2)C(=O)C3(C)C)cn1 [Example 105] . 5.16

Recall and state the measured pIC50 for Cc1ncc(-c2ccc3c(c2)N(c2cc(Cl)nc(C)n2)C(=O)C3(C)C)cn1 [Example 121] . 6.17

Recall and state the measured pIC50 for Cc1ncc(-c2ccc3c(c2)N(c2ccncc2)C(=O)C3(C)C)cn1 [Example 1] . 6.37

Recall and state the measured pIC50 for Cc1cnc(-c2ccc3c(c2)N(c2cncc(C)n2)C(=O)C3(C)C)cn1 [Example 132] . 5.61

Recall and state the measured pIC50 for Cc1ncc(-c2ccc3c(c2)N(c2cn(C)nn2)C(=O)C3(C)C)cn1 [Example 87] . 5.68

Recall and state the measured pIC50 for Cc1ccc(-c2ccc3c(c2)N(c2ccnc(C)c2)C(=O)C3(C)C)cn1 [Example 19] . 5.46

Recall and state the measured pIC50 for Cc1ncc(-c2ccc3c(c2)N(c2cncc(C(F)(F)F)c2)C(=O)C3(C)C)cn1 [Example 152] . 6.50

---

Record form. Attribute: IC50. Fill in for each entry.
Target: mouse ENT-1 transporter (Mus musculus, UniProt Q9JIM1)
Sequence (Q9JIM1 1-460): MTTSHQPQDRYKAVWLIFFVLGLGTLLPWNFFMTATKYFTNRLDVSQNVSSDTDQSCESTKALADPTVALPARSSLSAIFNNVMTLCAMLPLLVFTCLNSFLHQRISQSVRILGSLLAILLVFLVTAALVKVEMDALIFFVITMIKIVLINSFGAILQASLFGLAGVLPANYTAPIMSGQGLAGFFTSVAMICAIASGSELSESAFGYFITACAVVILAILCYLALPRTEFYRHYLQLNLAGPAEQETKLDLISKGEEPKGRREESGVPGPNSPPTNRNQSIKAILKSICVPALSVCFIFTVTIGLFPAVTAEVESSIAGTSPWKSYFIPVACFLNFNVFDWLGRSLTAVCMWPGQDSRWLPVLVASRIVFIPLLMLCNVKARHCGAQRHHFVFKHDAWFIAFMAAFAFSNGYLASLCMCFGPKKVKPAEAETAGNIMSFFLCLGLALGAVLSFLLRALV
Experiment: Measure of adenosine transport activity (ENT1 adenosine uptake inhibition)
Conditions: stable cells expressing mouse ENT-1, [2,8-3H]-adenosine 6 nM, 20 min
// units = nM; emit number, no label

Would you please give the reported IC50 of `Cc1cncc(-c2ccc3c(c2)N(c2cncc(C)n2)C(=O)C3(C)C)c1` with mouse ENT-1 transporter (Mus musculus, UniProt Q9JIM1)? 337

Would you please give the reported IC50 of `Cc1ncc(-c2ccc3c(c2)N(c2cnc(CF)nc2)C(=O)C3(C)C)cn1` with mouse ENT-1 transporter (Mus musculus, UniProt Q9JIM1)? 1900

Would you please give the reported IC50 of `Cc1ncc(-c2ccc3c(c2)N(c2nccnc2C)C(=O)C3(C)C)cn1` with mouse ENT-1 transporter (Mus musculus, UniProt Q9JIM1)? 7730

Would you please give the reported IC50 of `Cc1cncc(-c2ccc3c(c2)N(c2cnc(C)cn2)C(=O)C3(C)C)c1` with mouse ENT-1 transporter (Mus musculus, UniProt Q9JIM1)? 207
